# SYSTEM_TESTED: 5-hydroxytryptamine receptor 1A (Homo sapiens) (UniProt P08908)
# Sequence (P08908 whole entry): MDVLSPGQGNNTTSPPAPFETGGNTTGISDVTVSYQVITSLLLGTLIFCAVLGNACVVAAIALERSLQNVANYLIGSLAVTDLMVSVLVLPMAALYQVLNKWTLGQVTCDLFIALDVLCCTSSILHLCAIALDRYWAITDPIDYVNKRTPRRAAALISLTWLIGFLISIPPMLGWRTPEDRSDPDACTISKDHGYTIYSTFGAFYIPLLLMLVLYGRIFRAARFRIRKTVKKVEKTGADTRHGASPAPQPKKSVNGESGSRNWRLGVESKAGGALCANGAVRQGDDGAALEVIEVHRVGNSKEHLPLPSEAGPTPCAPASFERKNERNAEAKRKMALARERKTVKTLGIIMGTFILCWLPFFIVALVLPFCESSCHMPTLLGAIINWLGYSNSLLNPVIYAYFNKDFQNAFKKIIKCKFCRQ
# PROTOCOL: Agonist activity at human 5HT1A receptor expressed in C6 cells assessed as stimulation of [35S]GTP-gamma-S binding relative to 5-hydroxytryptamine
# Format: functional, cell-based

COMPOUND: O=C(c1ccc(F)c(Cl)c1)N1CCC(F)(CNCc2nccc(-c3ccco3)n2)CC1
Emax / %: 79
--
COMPOUND: CCCN(CCC)C1CCc2cccc(O)c2C1 (stereo not given) [8-OH-DPAT]
Emax / %: 35.9
--
COMPOUND: O=c1[nH]c2ccccc2n1CCN1CCN(c2cccc(C(F)(F)F)c2)CC1 [FLIBANSERIN]
Emax / %: 72
--
COMPOUND: Cc1ccc(CNCC2(F)CCN(C(=O)c3ccc(F)c(Cl)c3)CC2)nn1
Emax / %: 89.7
--
COMPOUND: COc1ccnc(CNCC2(F)CCN(C(=O)c3ccc(F)c(Cl)c3)CC2)n1
Emax / %: 75.5
--
COMPOUND: O=C(c1ccc(F)c(Cl)c1)N1CCC(F)(CNCc2ccc(Cl)cn2)CC1
Emax / %: 80.4
--
COMPOUND: O=C(c1ccc(F)c(Cl)c1)N1CCC(F)(CNCc2ccc(CF)cn2)CC1
Emax / %: 61
--
COMPOUND: Cc1cnc(CNCC2(F)CCN(C(=O)c3ccc(F)c(Cl)c3)CC2)nc1
Emax / %: 70.3
--
COMPOUND: CNc1ccnc(CNCC2(F)CCN(C(=O)c3ccc(F)c(Cl)c3)CC2)n1
Emax / %: 58.8
--
COMPOUND: CNc1nc(CNCC2(F)CCN(C(=O)c3ccc(F)c(Cl)c3)CC2)ncc1Cl
Emax / %: 71.8
